- assayed-system: Androgen Receptor (AR) (Homo sapiens, UniProt P10275, T878A)
- Construct: cell based immuno-fluorescence assay using the LNCaP prostate epithelial cell line; host or cells: LNCaP clone FGC prostate carcinoma cells
- Sequence (P10275 1-920 T878A): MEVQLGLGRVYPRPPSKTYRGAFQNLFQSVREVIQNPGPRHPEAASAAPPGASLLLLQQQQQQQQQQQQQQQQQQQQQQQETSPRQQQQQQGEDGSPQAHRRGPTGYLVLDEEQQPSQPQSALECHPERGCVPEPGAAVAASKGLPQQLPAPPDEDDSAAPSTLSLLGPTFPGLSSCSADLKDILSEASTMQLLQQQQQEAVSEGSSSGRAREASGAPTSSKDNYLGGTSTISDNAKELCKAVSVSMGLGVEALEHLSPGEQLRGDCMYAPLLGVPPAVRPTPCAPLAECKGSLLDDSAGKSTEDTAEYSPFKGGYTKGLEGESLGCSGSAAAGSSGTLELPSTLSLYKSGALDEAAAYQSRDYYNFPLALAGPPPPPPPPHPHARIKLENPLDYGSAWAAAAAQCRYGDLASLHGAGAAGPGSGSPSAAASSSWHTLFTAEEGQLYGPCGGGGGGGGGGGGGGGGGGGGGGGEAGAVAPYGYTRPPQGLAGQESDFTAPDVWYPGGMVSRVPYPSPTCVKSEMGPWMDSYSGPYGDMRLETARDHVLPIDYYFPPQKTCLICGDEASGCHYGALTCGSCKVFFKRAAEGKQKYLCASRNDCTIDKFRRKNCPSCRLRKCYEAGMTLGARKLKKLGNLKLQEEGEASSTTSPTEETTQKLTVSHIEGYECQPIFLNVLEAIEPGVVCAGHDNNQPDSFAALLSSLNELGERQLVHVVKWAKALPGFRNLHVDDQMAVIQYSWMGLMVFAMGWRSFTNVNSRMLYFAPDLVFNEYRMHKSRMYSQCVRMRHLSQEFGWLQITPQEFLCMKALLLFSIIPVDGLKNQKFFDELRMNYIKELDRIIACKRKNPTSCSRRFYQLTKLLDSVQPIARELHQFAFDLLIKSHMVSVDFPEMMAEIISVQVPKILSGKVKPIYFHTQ
- assay-explanation: LNCaP Androgen Receptor Down-Regulation Cell Assay
- Format: cell-based
- experimental-context: LNCaP prostate carcinoma cell line; 20-22 hours incubation; immunofluorescence; 50% reduction of the AR signal
Doc: threshold 500 nM (exclusive). Items with IC50 beneath it return Satisfied; others return Not satisfied.

Query string: Please determine if CC(=O)N1CCN([C@H](C)COc2ccc(C3(O)CCN(c4ccc5nnc(C(F)(F)F)n5n4)CC3)cc2)CC1 (single isomer, unassigned) [Example 44] is below 500 nM in terms of IC50.
Result string: Satisfied

Others:
Query string: Please determine if `O=C(CO)N1CCN(CCOc2ccc(C3CCN(c4ccc5nnc(C(F)(F)F)n5n4)CC3)cc2)CC1` is below 500 nM in terms of IC50.
Result string: Not satisfied

Query string: Please determine if `CC(=O)N1CCCN(CCOc2ccc(C3(O)CCN(c4ccc5nnc(C(F)(F)F)n5n4)CC3)c(F)c2)CC1` is below 500 nM in terms of IC50.
Result string: Satisfied

Query string: Please determine if `CC(=O)N1CCN(C[C@H](C)Oc2ccc(C3CCN(c4ccc5nnc(C(F)(F)F)n5n4)CC3)cc2)CC1` is below 500 nM in terms of IC50.
Result string: Not satisfied

Query string: Please determine if `CN1CCN(CCOc2ccc(N3CCN(c4ccc5nnc(C(F)(F)F)n5n4)CC3)cc2)CC1=O` is below 500 nM in terms of IC50.
Result string: Not satisfied

Query string: Please determine if `CN1CCN(CCCOc2ccc(C3(O)CCN(c4ccc5nnc(C(F)(F)F)n5n4)CC3)c(F)c2)CC1=O` is below 500 nM in terms of IC50.
Result string: Satisfied

Query string: Please determine if `CC(=O)N1CCN(CCOc2ccc(C3(O)CCN(c4ccc5nnc(C(F)(F)F)n5n4)CC3)cc2)C[C@H]1C` is below 500 nM in terms of IC50.
Result string: Satisfied

Query string: Please determine if `CN1CCN(CCOc2ccc(C3CCN(c4ccc5nnc(C(F)(F)F)n5n4)CC3)cc2)C(=O)C1` is below 500 nM in terms of IC50.
Result string: Not satisfied

Query string: Please determine if `CN1CCN(CCOc2ccc(C3(O)CCN(c4ccc5nnc(C(F)(F)F)n5n4)CC3)cc2)CC1=O` is below 500 nM in terms of IC50.
Result string: Satisfied

Query string: Please determine if `C[C@@H](O)C(=O)N1CCN(CCOc2ccc(C3CCN(c4ccc5nnc(C(F)(F)F)n5n4)CC3)cc2)CC1` is below 500 nM in terms of IC50.
Result string: Not satisfied

Query string: Please determine if `CN1CCN(CCOc2ccc(C3CCN(c4ccc5nnc(C(F)(F)F)n5n4)CC3)cc2)CC1=O` is below 500 nM in terms of IC50.
Result string: Satisfied

Query string: Please determine if CC(=O)N1CCN([C@H](C)COc2ccc(C3(O)CCN(c4ccc5nnc(C(F)(F)F)n5n4)CC3)cc2)CC1 (single isomer, unassigned) [Example 43] is below 500 nM in terms of IC50.
Result string: Satisfied

Query string: Please determine if `CC(=O)N1CCN(CCOc2ccc(C3(O)CCN(c4ccc5nnc(C(F)(F)F)n5n4)CC3)c(C)c2)CC1` is below 500 nM in terms of IC50.
Result string: Satisfied

Query string: Please determine if `Cc1cc(OCCN2CCN(C)C(=O)C2)ccc1C1(O)CCN(c2ccc3nnc(C(F)(F)F)n3n2)CC1` is below 500 nM in terms of IC50.
Result string: Satisfied

Query string: Please determine if `CN1CCN(CCOc2ccc(C3CCN(c4ccc5nnc(C(F)(F)F)n5n4)CC3)cc2)CCC1=O` is below 500 nM in terms of IC50.
Result string: Satisfied

Query string: Please determine if `CO[C@@H](C)C(=O)N1CCN(CCOc2ccc(C3CCN(c4ccc5nnc(C(F)(F)F)n5n4)CC3)cc2)CC1` is below 500 nM in terms of IC50.
Result string: Not satisfied

Query string: Please determine if `COCCN1CCN(CCCOc2ccc(C3CCN(c4ccc5nnc(C(F)(F)F)n5n4)CC3)cc2)CC1=O` is below 500 nM in terms of IC50.
Result string: Not satisfied

Query string: Please determine if `CCN1CCN(CCOc2ccc(C3(O)CCN(c4ccc5nnc(C(F)(F)F)n5n4)CC3)cc2)CC1=O` is below 500 nM in terms of IC50.
Result string: Satisfied

Query string: Please determine if `CC(C)N1CCN(CCOc2ccc(C3CCN(c4ccc5nnc(C(F)(F)F)n5n4)CC3)cc2)CC1=O` is below 500 nM in terms of IC50.
Result string: Not satisfied

Query string: Please determine if `O=C1CN(CCOc2ccc(N3CCN(c4ccc5nnc(C(F)(F)F)n5n4)CC3)cc2)CCN1C1CC1` is below 500 nM in terms of IC50.
Result string: Not satisfied

Query string: Please determine if `CN1CCN(CCOc2ccc(N3CCN(c4ccc5nnc(C(F)(F)F)n5n4)CC3)cc2)C(=O)C1` is below 500 nM in terms of IC50.
Result string: Not satisfied

Query string: Please determine if `CN1CCN(CCCOc2ccc(C3CCN(c4ccc5nnc(C(F)(F)F)n5n4)CC3)cc2)CC1=O` is below 500 nM in terms of IC50.
Result string: Satisfied

Query string: Please determine if `CC(=O)N1CCN(CCOc2ccc(C3CCN(c4ccc5nnc(C(F)(F)F)n5n4)CC3)cc2)C[C@@H]1C` is below 500 nM in terms of IC50.
Result string: Satisfied
